All figures here come from ChEMBL document CHEMBL3885861.

# Organism: Rattus norvegicus
# testProtocol: Open TG-GATES - Regimen: Daily Repeat
# Type: toxicity, organism-based, Sprague-Dawley
# Set-up: regimen Daily Repeat, gender Male, age 6 weeks
# reportedConditions: in vivo, po, 0 mg/kg, […], tissue Blood, route gavage, dose level Control, time 7 day
experimentalReadout: Hb (g/dL)
Supply the numeric figure in g/dL, leaving out any unit text.

O=C(O)COc1nn(Cc2ccccc2)c2ccccc12 [BENDAZAC] ... 14.1

# input Any idea what Hb was measured for CCN(CC)N=O [N-NITROSODIETHYLAMINE] ?
# output 13.5

# input // same read-out, input: CC(C)Cc1ccc(C(C)C(=O)O)cc1 (stereo not drawn) [IBUPROFEN]
# output 13.1

# input // same read-out, input: CC(=O)Nc1ccc2c(c1)Cc1ccccc1-2 [2-ACETYLAMINOFLUORENE]
# output 14.1

# input // same read-out, input: CC(CCc1ccccc1)NCC(O)c1ccc(O)c(C(N)=O)c1 (stereo not drawn) [LABETALOL]
# output 13.6

# input // same read-out, input: CC(N)=O [ACETAMIDE]
# output 12.7

# input // same read-out, input: CC[C@@H](CO)NCCN[C@@H](CC)CO [ETHAMBUTOL]
# output 14.1

# input // same read-out, input: CC(=O)N1CCN(c2ccc(OCC3COC(Cn4ccnc4)(c4ccc(Cl)cc4Cl)O3)cc2)CC1 (stereo not drawn) [KETOCONAZOLE]
# output 13.6
